These data points were gathered from ChEMBL document CHEMBL1773026.

Test: Oral bioavailability in human
Assay type: ADME, organism-based
Settings: in vivo
quantity_kind: bioavailability

Hello, please tell me recorded bioavailability for this one: `CC(C)N(CC[C@H](c1ccccc1)c1cc(CCCCOc2ccc(CCNC[C@H](O)c3ccc(O)c4[nH]c(=O)ccc34)cc2)ccc1O)C(C)C`
< 5%

----------
Molecular target: Muscarinic acetylcholine receptor M3 (Cavia porcellus, UniProt Q8VH26)
Sequence (Q8VH26 whole entry): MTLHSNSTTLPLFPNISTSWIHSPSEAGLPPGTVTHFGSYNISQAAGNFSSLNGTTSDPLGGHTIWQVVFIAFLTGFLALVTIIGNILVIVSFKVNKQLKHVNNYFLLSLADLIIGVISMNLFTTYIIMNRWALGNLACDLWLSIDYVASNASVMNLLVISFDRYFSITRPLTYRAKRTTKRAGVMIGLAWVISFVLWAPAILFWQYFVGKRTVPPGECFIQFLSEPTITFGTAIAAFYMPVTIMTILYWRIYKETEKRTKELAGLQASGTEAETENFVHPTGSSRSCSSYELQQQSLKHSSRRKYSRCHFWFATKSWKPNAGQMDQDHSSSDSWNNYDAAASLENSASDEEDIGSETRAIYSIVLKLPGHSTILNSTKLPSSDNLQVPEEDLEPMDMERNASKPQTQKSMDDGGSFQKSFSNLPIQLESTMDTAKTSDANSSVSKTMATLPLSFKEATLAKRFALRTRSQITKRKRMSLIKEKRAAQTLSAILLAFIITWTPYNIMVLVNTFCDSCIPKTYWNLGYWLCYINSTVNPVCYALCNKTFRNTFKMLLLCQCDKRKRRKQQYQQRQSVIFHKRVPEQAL
Test: […] activity at muscarinic M3 receptor in guinea pig trachea assessed as bronchorelaxation activity in presence of propranolol
quantity_kind: pEC50
Numbers only, as −log10 of the molar value.

CC(C)N(CC[C@H](c1ccccc1)c1cc(CCCNC(=O)Cc2cccc(CC(C)(C)NC[C@H](O)c3ccc(O)c(NS(C)(=O)=O)c3)c2)ccc1O)C(C)C ... 8.28

Now look at this entry.
Return the recorded pEC50 value; entry: `CC(C)N(CC[C@H](c1ccccc1)c1cc(CCCCOc2ccc(CCNC[C@H](O)c3ccc(O)c4[nH]c(=O)ccc34)cc2)ccc1O)C(C)C`
8.40

----------
Molecular target: Beta-2 adrenergic receptor (Homo sapiens, UniProt P07550)
Experiment: Agonist activity at human beta2 adrenergic receptor expressed in CHO cells assessed as stimulation of intracellular cAMP production after 30 mins of washing by wash-off assay
Sequence (P07550 whole entry): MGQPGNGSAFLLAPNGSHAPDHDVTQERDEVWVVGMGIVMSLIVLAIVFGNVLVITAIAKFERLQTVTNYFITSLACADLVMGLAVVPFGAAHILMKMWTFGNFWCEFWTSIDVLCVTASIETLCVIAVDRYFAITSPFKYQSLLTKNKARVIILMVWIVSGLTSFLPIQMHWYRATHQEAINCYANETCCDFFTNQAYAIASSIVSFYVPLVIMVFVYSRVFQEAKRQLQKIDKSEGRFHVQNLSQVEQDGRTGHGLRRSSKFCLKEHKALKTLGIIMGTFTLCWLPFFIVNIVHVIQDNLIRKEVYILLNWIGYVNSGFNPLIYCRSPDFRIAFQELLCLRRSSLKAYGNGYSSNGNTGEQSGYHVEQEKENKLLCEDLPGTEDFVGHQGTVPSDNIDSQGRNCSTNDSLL
Provide the reported pEC50 of each item.
One number for each entry, as −log10 of the molar value.

Parameters: items (list). Returns: pEC50 for each item.
1. CC(C)N(CC[C@H](c1ccccc1)c1cc(CCNC[C@H](O)c2ccc(O)c(NS(C)(=O)=O)c2)ccc1O)C(C)C
2. C[C@H](Cc1cccc(CC(=O)NCc2ccc(Cl)c(Cl)c2)c1)NC[C@H](O)c1ccc(O)c(CO)c1
3. CC(C)N(CC[C@H](c1ccccc1)c1cc(CCCNC(=O)Cc2cccc(CC(C)(C)NC[C@H](O)c3ccc(O)c(CO)c3)c2)ccc1O)C(C)C
4. CC(C)N(CC[C@H](c1ccccc1)c1cc(CCCNC(=O)CCCCCCCCCCNC[C@H](O)c2ccc(O)c(NS(C)(=O)=O)c2)ccc1O)C(C)C
5. CC(C)N(CC[C@H](c1ccccc1)c1cc(CCCCOc2ccc(CCNC[C@H](O)c3ccc(O)c(CO)c3)cc2)ccc1O)C(C)C
6. CC(C)N(CC[C@H](c1ccccc1)c1cc(CCCNC(=O)Cc2cccc(CC(C)(C)NC[C@H](O)c3ccc(O)c(NS(C)(=O)=O)c3)c2)ccc1O)C(C)C
7. CC(C)N(CC[C@H](c1ccccc1)c1cc(CCCNC(=O)Cc2cccc(C[C@@H](C)NC[C@H](O)c3cc(O)cc(O)c3)c2)ccc1O)C(C)C

1: 8.00; 2: 8.96; 3: 7.77; 4: 6.94; 5: 6.89; 6: 8.09; 7: 7.82

----------
Record form. Attribute: Ratio EC50. Fill in for each entry.
Target: Beta-2 adrenergic receptor (Homo sapiens, UniProt P07550)
Assay: Ratio of EC50 for human beta2 adrenergic receptor by unwashed assay to EC50 for human beta2 adrenergic receptor expressed in CHO cells by wash-off assay
Assay type: cell-based
Sequence (P07550 whole entry, looked up): as the sequence (P07550 whole entry) above
Answers are plain numbers.

CC(C)N(CC[C@H](c1ccccc1)c1cc(CCCNC(=O)CCCCCCCCCCNC[C@H](O)c2ccc(O)c(NS(C)(=O)=O)c2)ccc1O)C(C)C ... 7.3
CC(C)N(CC[C@H](c1ccccc1)c1cc(CCCCOc2ccc(CCNC[C@H](O)c3ccc(O)c(NS(C)(=O)=O)c3)cc2)ccc1O)C(C)C ... 1.9
CC(C)N(CC[C@H](c1ccccc1)c1cc(CCNC[C@H](O)c2ccc(O)c(NS(C)(=O)=O)c2)ccc1O)C(C)C ... 19

For every record below, what is its Ratio EC50?
1. CC(C)N(CC[C@H](c1ccccc1)c1cc(CCCCOCCCCCCNC[C@H](O)c2ccc(O)c(NS(C)(=O)=O)c2)ccc1O)C(C)C
2. CC(C)N(CC[C@H](c1ccccc1)c1cc(CCCNC(=O)Cc2cccc(CC(C)(C)NC[C@H](O)c3ccc(O)c(CO)c3)c2)ccc1O)C(C)C
3. CC(C)N(CC[C@H](c1ccccc1)c1cc(CCCNC(=O)Cc2cccc(CC(C)(C)NC[C@H](O)c3ccc(O)c(NS(C)(=O)=O)c3)c2)ccc1O)C(C)C
4. CC(C)N(CC[C@H](c1ccccc1)c1cc(CCCCOc2ccc(CCNC[C@H](O)c3ccc(O)c(CO)c3)cc2)ccc1O)C(C)C

[0.7, 2.8, 1.1, 2.6]

----------
pKi data for Muscarinic acetylcholine receptor M3 (Homo sapiens) follow.
Give bare numbers, as −log10 of the molar value.

Record excerpt, results attached:
CC(C)N(CC[C@H](c1ccccc1)c1cc(CCCNC(=O)Cc2cccc(C[C@@H](C)NC[C@H](O)c3cc(O)cc(O)c3)c2)ccc1O)C(C)C ... 9.40
CC(C)N(CC[C@H](c1ccccc1)c1cc(CCCNC(=O)CCCCCCCCCCNC[C@H](O)c2ccc(O)c(NS(C)(=O)=O)c2)ccc1O)C(C)C ... 8.84
CC(C)N(CC[C@H](c1ccccc1)c1cc(CCCCOc2ccc(CCNC[C@H](O)c3ccc(O)c(O)c3)cc2)ccc1O)C(C)C ... 8.33
CC(C)N(CC[C@H](c1ccccc1)c1cc(CCNC[C@H](O)c2ccc(O)c(NS(C)(=O)=O)c2)ccc1O)C(C)C ... 8.21
CC(C)N(CC[C@H](c1ccccc1)c1cc(CCCCOc2ccc(CCNC[C@H](O)c3ccc(O)c(NS(C)(=O)=O)c3)cc2)ccc1O)C(C)C ... 9.20
CC(C)N(CC[C@H](c1ccccc1)c1cc(CCCNC(=O)Cc2cccc(CC(C)(C)NC[C@H](O)c3ccc(O)c(CO)c3)c2)ccc1O)C(C)C ... 10.04
CC(C)N(CC[C@H](c1ccccc1)c1cc(CCCCOc2ccc(CCNC[C@H](O)c3ccc(O)c(CO)c3)cc2)ccc1O)C(C)C ... 9.12
CC(C)N(CC[C@H](c1ccccc1)c1cc(CCCCOc2ccc(CCNC[C@H](O)c3ccc(O)c4[nH]c(=O)ccc34)cc2)ccc1O)C(C)C ... 9.52
CC(C)N(CC[C@H](c1ccccc1)c1cc(CCCCOCCCCCCNC[C@H](O)c2ccc(O)c(NS(C)(=O)=O)c2)ccc1O)C(C)C ... 9.00

Read the next record carefully.
Specify measured pKi for `CC(C)N(CC[C@H](c1ccccc1)c1cc(CCCNC(=O)Cc2cccc(CC(C)(C)NC[C@H](O)c3ccc(O)c(NS(C)(=O)=O)c3)c2)ccc1O)C(C)C` .
9.56

----------
Target: UniProtKB P07550
Assay: Agonist activity at human beta2 adrenergic receptor expressed in CHO cells assessed as stimulation of intracellular cAMP production after 30 mins of washing by wash-off assay
Assignment: determine reported pEC50 for the given compounds.
One number for each entry, as −log10 of the molar value.

Worked examples follow.
CC(C)N(CC[C@H](c1ccccc1)c1cc(CCCCOCCCCCCNC[C@H](O)c2ccc(O)c(NS(C)(=O)=O)c2)ccc1O)C(C)C ... 8.24
CC(C)N(CC[C@H](c1ccccc1)c1cc(CCCCOc2ccc(CCNC[C@H](O)c3ccc(O)c(NS(C)(=O)=O)c3)cc2)ccc1O)C(C)C ... 7.89
CC(C)N(CC[C@H](c1ccccc1)c1cc(CCCCOc2ccc(CCNC[C@H](O)c3ccc(O)c4[nH]c(=O)ccc34)cc2)ccc1O)C(C)C ... 8.62

Would you kindly look at the next entry?
Quick one: give measured pEC50 for `CC(C)N(CC[C@H](c1ccccc1)c1cc(CCCCOc2ccc(CCNC[C@H](O)c3ccc(O)c(O)c3)cc2)ccc1O)C(C)C`
6.76

----------
Experiment: AUC in rat at 2 mg/kg, iv
Type: ADME, organism-based
Set-up: dose 2 mg/kg, route intravenous
Conditions: plasma
quantity_kind: AUC

Please indicate AUC recorded for `CC(C)N(CC[C@H](c1ccccc1)c1cc(CCCCOc2ccc(CCNC[C@H](O)c3ccc(O)c4[nH]c(=O)ccc34)cc2)ccc1O)C(C)C`
2670 ng·h/mL

----------
Biological target: Beta-2 adrenergic receptor (Cavia porcellus, UniProt Q8K4Z4)
Sequence (Q8K4Z4 whole entry): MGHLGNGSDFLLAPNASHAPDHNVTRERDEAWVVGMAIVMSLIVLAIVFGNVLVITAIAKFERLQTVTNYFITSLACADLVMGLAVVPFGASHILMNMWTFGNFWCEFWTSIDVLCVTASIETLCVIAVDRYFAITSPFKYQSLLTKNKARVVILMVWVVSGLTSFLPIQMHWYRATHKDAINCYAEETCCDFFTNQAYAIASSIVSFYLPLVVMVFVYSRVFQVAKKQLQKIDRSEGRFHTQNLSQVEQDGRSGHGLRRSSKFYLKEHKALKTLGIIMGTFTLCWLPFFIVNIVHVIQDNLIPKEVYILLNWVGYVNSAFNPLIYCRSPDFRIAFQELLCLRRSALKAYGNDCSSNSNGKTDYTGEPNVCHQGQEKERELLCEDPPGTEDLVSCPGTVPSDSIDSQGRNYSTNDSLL
Assay: Agonist activity at adrenergic beta2 receptor in guinea pig trachea assessed as bronchorelaxation activity against histamine-induced contraction
Type: functional
quantity_kind: EC50 (nM)
Give bare numbers, in nM.

CC(C)N(CC[C@H](c1ccccc1)c1cc(CCCNC(=O)Cc2cccc(CC(C)(C)NC[C@H](O)c3ccc(O)c(NS(C)(=O)=O)c3)c2)ccc1O)C(C)C ... 2.1

Kindly review the next molecule as well.
Read off the recorded EC50 for `CC(C)N(CC[C@H](c1ccccc1)c1cc(CCCCOc2ccc(CCNC[C@H](O)c3ccc(O)c4[nH]c(=O)ccc34)cc2)ccc1O)C(C)C`
4

----------
Assay: Clearance in human liver microsomes
Format: ADME, Microsome
I'd appreciate it if you could supply microsomal CLint values for the items below.
Give bare numbers, in µL/min/mg.

CC(C)N(CC[C@H](c1ccccc1)c1cc(CCCNC(=O)CCCCCCCCCCNC[C@H](O)c2ccc(O)c(NS(C)(=O)=O)c2)ccc1O)C(C)C ... 87

// each compound listed below needs its microsomal CLint
1. CC(C)N(CC[C@H](c1ccccc1)c1cc(CCCCOc2ccc(CCNC[C@H](O)c3ccc(O)c4[nH]c(=O)ccc34)cc2)ccc1O)C(C)C
2. CC(C)N(CC[C@H](c1ccccc1)c1cc(CCCCOc2ccc(CCNC[C@H](O)c3ccc(O)c(CO)c3)cc2)ccc1O)C(C)C
3. CC(C)N(CC[C@H](c1ccccc1)c1cc(CCCCOCCCCCCNC[C@H](O)c2ccc(O)c(NS(C)(=O)=O)c2)ccc1O)C(C)C
4. CC(C)N(CC[C@H](c1ccccc1)c1cc(CCCNC(=O)Cc2cccc(CC(C)(C)NC[C@H](O)c3ccc(O)c(NS(C)(=O)=O)c3)c2)ccc1O)C(C)C
5. CC(C)N(CC[C@H](c1ccccc1)c1cc(CCCNC(=O)Cc2cccc(CC(C)(C)NC[C@H](O)c3ccc(O)c(CO)c3)c2)ccc1O)C(C)C
6. CC(C)N(CC[C@H](c1ccccc1)c1cc(CCCCOc2ccc(CCNC[C@H](O)c3ccc(O)c(NS(C)(=O)=O)c3)cc2)ccc1O)C(C)C
7. Cc1ccc(O)c([C@H](CCN(C(C)C)C(C)C)c2ccccc2)c1 [TOLTERODINE]

1. 74
2. 54
3. 57
4. 109
5. 263
6. 67
7. 163
